// reported kon for each item listed
- TARGET: T1, ZIKV (prM80E) with a C-terminal myc-myc-hexahistidine tag (Zika virus, UniProt A0A024B7W1 104-694)
- T1 construct: also called ZIKV (prM80E)-mmH; ZIKV-mmH
- PROTOCOL SUMMARY: SPR, mAb captured, 37C
Express the result in M⁻¹ s⁻¹ but write the number alone.

- BINDER: "H4H25640P (antibody, V domains shown) VH: QVQLVESGGGVVQPGRSLRLSCAASGFTFSYYGMHWVRQAPGKGLEWVAVILYDGSNKFYSDSVKGRFTISRDNSRNTLYLQMNSLRLEDTAVYYCAKDYGGRFDYWGQGTLVTVSS VL: EIVLTQSPGTLSLSSGERATLSCRASQSVSNKYLAWYQQKPGQVPRLLIYGASNRATGIPDRFSGSGSGTDFTLTINRLEPEDFAVFYCQQYGSTPSTFGQGTKVEIK"
  kon, M⁻¹ s⁻¹: "1.47e+06"

[in] For the binder H4H25566P (antibody, V domains shown) VH: QVQLQESGPGLVKPSQTLSLTCTVSGGSISSGGYYWSWIRQHPGKGLEWIGYIYYSGSTYYNPSLKSRITISIDTSKNQFSLKLTSVTAADTAVYYCARGQQLLSFDYWGQGTLVTVSS VL: DIQMTQSPSSVSASVGDRVTITCRASQGISRWLAWYQLKPGKPPTPLIYAASSLQSGAPSRFSGRGSGTDFTLTISSLQPEDFATYYCQQANSFPYTFGQGTKLEIK , give its reported kon.
[out] 687000

[in] Assign kon to the following record: H4H25617P (antibody, V domains shown) VH: EVQLVESGGGLVQPGGSLRLSCSASGFTFTTYAMSWVRQAPGRGLEWVSSISGTGVSTYYADSVKGRFTISRDNSKNALYLQMNSLTAEDTAVYYCAKDSGTYHWGQGTLVTVSS VL: EIVLTQSPATLSLSPGERATLSCRASQSVDSYLAWYQQKPGQAPRLLIYDASNRATGIPARFSGSGSGTDFTLTISSLESEDFAVYYCQQRRNWPQFTFGGGTKVEIK
[out] 452000

[in] Specify reported kon for the binder shown: H4H25704N (antibody, V domains shown) VH: QVQLVESGGGVVQSGRSLRLSCAASGFTFIYYGMHWVRQAPGKGLEWVAVISYDGSDRYYADSVKGRFTISRDDSKNTLYLQMNSLRPEDTAVYYCAKDRGGRFDYWGQGTLVTVSS VL: EIVLTQSPGTLSLSPGERATLSCRASQSVNNNYLAWYQQKPGQAPRLLIYGASSRATGIPDRFGGGGSGTDFTLTISRLEPEDFAVYYCQRYGNSPLTFGGGTKVEIK
[out] 1.93e+06
